assayed-target: T1, GTA
T1 chain: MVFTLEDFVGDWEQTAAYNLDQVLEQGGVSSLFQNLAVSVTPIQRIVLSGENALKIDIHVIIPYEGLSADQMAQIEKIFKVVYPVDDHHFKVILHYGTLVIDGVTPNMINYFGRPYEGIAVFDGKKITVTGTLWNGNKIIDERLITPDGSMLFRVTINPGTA
method-summary: luminescence complementation
assay-setup: chains peptide; modification not given
observed-property: pKd
Lab note — pKd values are minus log10 of concentrations in M.

Which pKd value belongs to GWRLFKKISN [NLpep82] ? 6.60
